# Tested on: U937 (Monocytic)
# runDescription: Anti-proliferation in U937 cells
# Assay type: cell-based, human
# settings: Homo sapiens, U-937, 72 h; U937 (Monocytic), 3 days incubation; read-out: Anti-Proliferation EC50
Reported pEC50 values are given for each entry in this list.
Remember the convention: pEC50 equals -log10 of concentration in molar.

Use these answered entries as a reference point.
Nc1nc(F)nc2c1ncn2[C@@H]1O[C@H](CO)[C@@H](O)[C@@H]1O [Fludarabine des-phosphate] ... 6.52
Nc1nc(N)c2ncn(CCOCP(=O)(O)O)c2n1 ... 4.61
COc1cccc2c1C(=O)c1c(O)c3c(c(O)c1C2=O)C[C@@](O)(C(=O)CO)C[C@@H]3O[C@H]1C[C@H](N)[C@H](O)[C@H](C)O1 ... 7.89
CCOC(=O)C(C)NP(=O)(COCCn1cnc2c(NC3CC3)nc(N)nc21)NC(C)C(=O)OCC (stereo not shown) ... 6.40
CC[C@]1(O)C[C@H]2CN(CCc3c([nH]c4ccccc34)[C@@](C(=O)OC)(c3cc4c(cc3OC)N(C=O)[C@H]3[C@@](O)(C(=O)OC)[C@H](OC(C)=O)[C@]5(CC)C=CCN6CC[C@]43[C@@H]65)C2)C1 ... 8.55

Please turn your attention to the following entry.
The recorded pEC50 for Nc1nc(Cl)nc2c1ncn2[C@@H]1O[C@H](CO)[C@@H](O)[C@@H]1F is 7.43

* * *

# Tested on: Daudi (B-lymphoid)
# runDescription: Anti-proliferation in Daudi cells
# Format: cell-based, human
# settings: Homo sapiens, 72 h, 3 days incubation
Reported EC50 values are given for each entry in this list.
Report the figure in nM without appending any unit label.

Nc1ccn([C@@H]2O[C@H](CO)[C@@H](O)[C@@H]2O)c(=O)n1 [Ara-C, Cytarabine] ... 209
Nc1ccn([C@@H]2O[C@H](CO)[C@@H](O)C2(F)F)c(=O)n1 [Gemcitabine] ... 6
CCOC(=O)C(C)NP(=O)(COCCn1cnc2c(NC3CC3)nc(N)nc21)NC(C)C(=O)OCC (centres unmarked) [Compound 1] ... 27
COc1cccc2c1C(=O)c1c(O)c3c(c(O)c1C2=O)C[C@@](O)(C(=O)CO)C[C@@H]3O[C@H]1C[C@H](N)[C@H](O)[C@H](C)O1 [Doxorubicin] ... 3.8
CC[C@]1(O)C[C@H]2CN(CCc3c([nH]c4ccccc34)[C@@](C(=O)OC)(c3cc4c(cc3OC)N(C=O)[C@H]3[C@@](O)(C(=O)OC)[C@H](OC(C)=O)[C@]5(CC)C=CCN6CC[C@]43[C@@H]65)C2)C1 [Vincristine] ... 0.6

The recorded EC50 for Nc1nc(Cl)nc2c1ncn2[C@@H]1O[C@H](CO)[C@@H](O)[C@@H]1F [Clofarabine] is 221

The recorded EC50 for Nc1nc(N)c2ncn(CCOCP(=O)(O)O)c2n1 [PMEDAP] is 14000

The recorded EC50 for Nc1nc(Cl)nc2c1ncn2[C@H]1C[C@H](O)[C@@H](CO)O1 [Cladribine] is 525

* * *

# Tested on: U937 (Monocytic)
# runDescription: Anti-proliferation in U937 cells
# Format: cell-based, human
# settings: Homo sapiens, U-937, 72 h; U937 (Monocytic), 3 days incubation; read-out: Anti-Proliferation EC50
Reported EC50 values are given for each entry in this list.
Report the figure in nM without appending any unit label.

Nc1ccn([C@@H]2O[C@H](CO)[C@@H](O)C2(F)F)c(=O)n1 [Gemcitabine] ... 31
Nc1nc(Cl)nc2c1ncn2[C@H]1C[C@H](O)[C@@H](CO)O1 [Cladribine] ... 20

Please turn your attention to the following entry.
The recorded EC50 for Nc1ccn([C@@H]2O[C@H](CO)[C@@H](O)[C@@H]2O)c(=O)n1 [Ara-C, Cytarabine] is 38

* * *

# Tested on: Molt 4 (T-lymphoid)
# runDescription: Anti-proliferation in Molt 4 cells
# Type: cell-based, human
# settings: Molt 4 (T-lymphoid), 3 days incubation; read-out: Anti-Proliferation EC50
parameter: EC50 (nM)
Report the figure in nM without appending any unit label.

Nc1nc(NC2CC2)c2ncn(CCOCP(=O)(O)O)c2n1 [GS-8369] ... 1470

Please turn your attention to the following entry.
The recorded EC50 for Nc1nc2c(ncn2CCOCP(=O)(O)O)c(=O)[nH]1 [PMEG, 9-(2-phosphonylmethoxyethyl)guanine] is 1740

* * *

# System: PWM-blast (human B-cells)
# runDescription: Anti-proliferation in human PWM-lymphoblasts (BrdU/XTT)
# Type: cell-based
# settings: B-cell, 72 h, 3 days incubation
parameter: pEC50
Remember the convention: pEC50 equals -log10 of concentration in molar.

Use these answered entries as a reference point.
Nc1nc(Cl)nc2c1ncn2[C@@H]1O[C@H](CO)[C@@H](O)[C@@H]1F ... 6.90
CC[C@]1(O)C[C@H]2CN(CCc3c([nH]c4ccccc34)[C@@](C(=O)OC)(c3cc4c(cc3OC)N(C=O)[C@H]3[C@@](O)(C(=O)OC)[C@H](OC(C)=O)[C@]5(CC)C=CCN6CC[C@]43[C@@H]65)C2)C1 ... 9.05

Please turn your attention to the following entry.
The recorded pEC50 for CCOC(=O)C(C)NP(=O)(COCCn1cnc2c(NC3CC3)nc(N)nc21)NC(C)C(=O)OCC (stereo not drawn) is 7.38

* * *

# Tested on: PM-1 (T-lymphoid)
# runDescription: Anti-proliferation in PM-1 cells
# Format: cell-based, human
# settings: Homo sapiens, T-lymphoid, 72 h, read-out: Anti-Proliferation EC50
parameter: EC50

EC50 of Nc1ncn([C@H]2C[C@H](O)[C@@H](CO)O2)c(=O)n1 , assay on PM-1 (T-lymphoid), is > 20 µM

* * *

Reported EC50 values are given for each entry in this list.
# Test system: lymphoblasts and leukemia/lymphoma cell lines
# runDescription: Anti-proliferation, EC50 range over the cell panel
# Assay type: cell-based
# settings: range over a variety of lymphoblasts and leukemia/lymphoma cell lines

Use these answered entries as a reference point.
OC[C@H]1O[C@@H](n2cnc3c2NC=NC[C@H]3O)C[C@@H]1O ... > 200000 nM
CCOC(=O)C(C)NP(=O)(COCCn1cnc2c(NC3CC3)nc(N)nc21)NC(C)C(=O)OCC (stereo not drawn) ... 27 to 1040 nM
CC[C@]1(O)C[C@H]2CN(CCc3c([nH]c4ccccc34)[C@@](C(=O)OC)(c3cc4c(cc3OC)N(C=O)[C@H]3[C@@](O)(C(=O)OC)[C@H](OC(C)=O)[C@]5(CC)C=CCN6CC[C@]43[C@@H]65)C2)C1 ... 0.6 to 5.3 nM
Nc1ccn([C@@H]2O[C@H](CO)[C@@H](O)C2(F)F)c(=O)n1 ... 3.4 to 18 nM
Nc1ccn([C@@H]2O[C@H](CO)[C@@H](O)[C@@H]2O)c(=O)n1 ... 23 to 1820 nM

The recorded EC50 for Nc1nc(Cl)nc2c1ncn2[C@@H]1O[C@H](CO)[C@@H](O)[C@@H]1F is 25 to 418 nM

* * *

# settings: dog, in vivo
Reported PBMC to Plasma ratio values are given for each entry in this list.
Give the figure by itself; no unit, no explanation.

The recorded PBMC to Plasma ratio for CC(C)OC(=O)[C@H](C)NP(=O)(COCCn1cnc2c(NC3CC3)nc(N)nc21)N[C@@H](C)C(=O)OC(C)C is 1.2

The recorded PBMC to Plasma ratio for C[C@H](NP(=O)(COCCn1cnc2c(NC3CC3)nc(N)nc21)Oc1ccccc1)C(=O)OC(C)(C)C (single isomer, unassigned) [MonoAlatBu(A)] is 19

The recorded PBMC to Plasma ratio for CC(C)OC(=O)[C@H](C)NP(=O)(COCCn1cnc2c(NC3CC3)nc(N)nc21)Oc1ccccc1 (stereo partly shown) is 17

The recorded PBMC to Plasma ratio for C[C@H](NP(=O)(COCCn1cnc2c(NC3CC3)nc(N)nc21)Oc1ccccc1)C(=O)OC(C)(C)C (stereo partly shown) [MonoAlatBu] is 12

* * *

# Test system: HL-60 (Myeloid)
# runDescription: Anti-proliferation in HL-60 cells
# Type: cell-based, human
# settings: Homo sapiens, 72 h; HL-60 (Myeloid), 3 days incubation; read-out: Anti-Proliferation EC50
parameter: log10 EC50 (log10 of the value in nM)
Please keep in mind that the values are log10 of EC50 expressed in nM.

Use these answered entries as a reference point.
Nc1nc(F)nc2c1ncn2[C@@H]1O[C@H](CO)[C@@H](O)[C@@H]1O [Fludarabine des-phosphate] ... 3.25
Nc1ccn([C@@H]2O[C@H](CO)[C@@H](O)C2(F)F)c(=O)n1 ... 0.93
COc1cccc2c1C(=O)c1c(O)c3c(c(O)c1C2=O)C[C@@](O)(C(=O)CO)C[C@@H]3O[C@H]1C[C@H](N)[C@H](O)[C@H](C)O1 ... 1.38

Please turn your attention to the following entry.
The recorded log10 EC50 for CC[C@]1(O)C[C@H]2CN(CCc3c([nH]c4ccccc34)[C@@](C(=O)OC)(c3cc4c(cc3OC)N(C=O)[C@H]3[C@@](O)(C(=O)OC)[C@H](OC(C)=O)[C@]5(CC)C=CCN6CC[C@]43[C@@H]65)C2)C1 is 0.30
